Sourced from the supplement of paper PMC8882468

- Test system: HCI-012 (organoid from a breast cancer xenograft)
- test-details: CTG-3D luminescence at 96 h relative to day-0 seeding control (ratio to day 0); higher = more growth / less cytotoxicity; PDxO 3D drug screen (set 2), 96 h, CTG-3D normalised to day-0 seeding control.
- test-parameters: 100 µM; days in culture: 214
endpoint-label: CTG-3D luminescence at 96 h

>>> reported_result("CS(=O)(=O)CCNCc1ccc(-c2ccc3ncnc(Nc4ccc(OCc5cccc(F)c5)c(Cl)c4)c3c2)o1 [lapatinib]")
0.0116
>>> reported_result("CO[C@H]1C[C@@H]2CC[C@@H](C)[C@@](O)(O2)C(=O)C(=O)N2CCCC[C@H]2C(=O)O[C@H]([C@H](C)C[C@@H]2CC[C@@H](OCCO)[C@H](OC)C2)CC(=O)[C@H](C)/C=C(\\C)[C@@H](O)[C@@H](OC)C(=O)[C@H](C)C[C@H](C)/C=C/C=C/C=C/1C [everolimus]")
-0.000454
>>> reported_result("CC(=O)O[C@@]12CO[C@@H]1C[C@H](O)[C@@]1(C)C(=O)[C@H](O)C3=C(C)[C@@H](OC(=O)[C@H](O)[C@@H](NC(=O)OC(C)(C)C)c4ccccc4)C[C@@](O)([C@@H](OC(=O)c4ccccc4)[C@H]21)C3(C)C [docetaxel]")
0.105
>>> reported_result("CC(=O)c1c(C)c2cnc(Nc3ccc(N4CCNCC4)cn3)nc2n(C2CCCC2)c1=O [palbociclib]")
0.494

---

- System: HCI-017.E2 (organoid from an ER-positive breast cancer xenograft)
- test-details: CTG-3D luminescence at 96 h relative to day-0 seeding control (ratio to day 0); higher = more growth / less cytotoxicity; PDxO 3D drug screen, 96 h, CTG-3D normalised to day-0 seeding control.
- test-parameters: 0.005 µM; days in culture: 85
// reported CTG-3D luminescence at 96 h per item
endpoint-label: CTG-3D luminescence at 96 h

>>> reported_result("O=C(c1ccc(F)c(F)c1Nc1ccc(I)cc1F)N1CC(O)([C@@H]2CCCCN2)C1 [cobimetinib]")
2.34
>>> reported_result("CCN1CCN(Cc2ccc(Nc3ncc(F)c(-c4cc(F)c5nc(C)n(C(C)C)c5c4)n3)nc2)CC1 [abemaciclib]")
2.5
>>> reported_result("Nc1ccn([C@@H]2O[C@H](CO)[C@@H](O)C2(F)F)c(=O)n1 [gemcitabine]")
2.88
>>> reported_result("CNC(=O)c1cccc(-c2ccc3c(N4CCOC[C@@H]4C)nc(N4CCOC[C@@H]4C)nc3n2)c1 [vistusertib]")
2.83

---

- Tested on: HCI-010 (organoid from a breast cancer xenograft)
- test-details: CTG-3D luminescence at 96 h relative to day-0 seeding control (ratio to day 0); higher = more growth / less cytotoxicity; PDxO 3D drug screen, 96 h, CTG-3D normalised to day-0 seeding control.
- test-parameters: 0.00025 µM; days in culture: 52
Let's look at some compounds and their measured CTG-3D luminescence at 96 h.
endpoint-label: CTG-3D luminescence at 96 h

>>> reported_result("Cc1cc(Nc2ncc(Cl)c(Nc3ccccc3S(=O)(=O)C(C)C)n2)c(OC(C)C)cc1C1CCNCC1 [ceritinib]")
2.15
>>> reported_result("O=C(O)C1(C(=O)O)CCC1.[NH2-].[NH2-].[Pt+2] [carboplatin]")
2.23
>>> reported_result("CCc1c2c(nc3ccc(O)cc13)-c1cc3c(c(=O)n1C2)COC(=O)[C@]3(O)CC [SN-38]")
2.36
>>> reported_result("C=CCn1c(=O)c2cnc(Nc3ccc(N4CCN(C)CC4)cc3)nc2n1-c1cccc(C(C)(C)O)n1 [adavosertib]")
2.26
>>> reported_result("CN(Cc1cnc2nc(N)nc(N)c2n1)c1ccc(C(=O)N[C@@H](CCC(=O)O)C(=O)O)cc1 [methotrexate]")
2.41
>>> reported_result("NC1(C(=O)N[C@@H](CCO)c2ccc(Cl)cc2)CCN(c2nc[nH]c3nccc2-3)CC1 [capivasertib]")
2.33
>>> reported_result("CC[C@H](NC(=O)[C@H](C)NC)C(=O)N1C[C@@H](O)C[C@H]1Cc1c(-c2[nH]c3cc(F)ccc3c2C[C@@H]2C[C@H](O)CN2C(=O)[C@H](CC)NC(=O)[C@H](C)NC)[nH]c2cc(F)ccc12 [birinapant]")
2.47
>>> reported_result("COc1cccc2c1C(=O)c1c(O)c3c(c(O)c1C2=O)C[C@@](O)(C(=O)CO)C[C@@H]3O[C@H]1C[C@H](N)[C@H](O)[C@H](C)O1 [doxorubicin]")
2.37
>>> reported_result("CCN(c1cc(C#CCN2CCOCC2)cc(C(=O)NCc2c(C)cc(C)[nH]c2=O)c1C)[C@H]1CC[C@H](N(C)CCOC)CC1")
2.5

---

- Test system: HCI-001 (organoid from a triple-negative breast cancer xenograft)
- test-details: CTG-3D luminescence at 96 h relative to day-0 seeding control (ratio to day 0); higher = more growth / less cytotoxicity; PDxO 3D drug screen, 96 h, CTG-3D normalised to day-0 seeding control.
- test-parameters: 0.1 µM; days in culture: 260
endpoint-label: CTG-3D luminescence at 96 h

>>> reported_result("C[C@H](NC(=O)CCC(F)(F)F)C(=O)N[C@@H]1C(=O)N(CCO)c2ncccc2-c2ccccc21")
1.34
>>> reported_result("CS(=O)(=O)c1ccc(C(=O)Nc2ccc(Cl)c(-c3ccccn3)c2)c(Cl)c1")
1.74
>>> reported_result("CCc1c2c(nc3ccc(O)cc13)-c1cc3c(c(=O)n1C2)COC(=O)[C@]3(O)CC")
0.603
>>> reported_result("O=C(/C=C/c1cccnc1)NCCCCC1CCN(C(=O)c2ccccc2)CC1")
0.126
>>> reported_result("CNC(=O)c1cccc(-c2ccc3c(N4CCOC[C@@H]4C)nc(N4CCOC[C@@H]4C)nc3n2)c1")
1.31
>>> reported_result("CCN1CCN(Cc2ccc(Nc3ncc(F)c(-c4cc(F)c5nc(C)n(C(C)C)c5c4)n3)nc2)CC1")
1.75

---

Each entry below carries its recorded CTG-3D luminescence at 96 h.
- Tested on: HCI-010
- test-details: CTG-3D luminescence at 96 h relative to day-0 seeding control (ratio to day 0); higher = more growth / less cytotoxicity; PDxO 3D drug screen (set 2), 96 h, CTG-3D normalised to day-0 seeding control.
- test-parameters: 0.1 µM; days in culture: 86
endpoint-label: CTG-3D luminescence at 96 h

>>> reported_result("Cc1c(CN2CCN(C(=O)[C@H](C)O)CC2)sc2c(N3CCOCC3)nc(-c3cnc(N)nc3)nc12")
1.94
>>> reported_result("CCOc1ccn(-c2ccc(F)cc2)c(=O)c1C(=O)Nc1ccc(Oc2ccnc(N)c2Cl)c(F)c1")
2.77
>>> reported_result("COc1cccc2c1C(=O)c1c(O)c3c(c(O)c1C2=O)C[C@@](O)(C(=O)CO)C[C@@H]3O[C@H]1C[C@H](N)[C@@H](O)[C@H](C)O1 [epirubicin]")
0.972
>>> reported_result("CC(=O)O[C@@]12CO[C@@H]1C[C@H](O)[C@@]1(C)C(=O)[C@H](O)C3=C(C)[C@@H](OC(=O)[C@H](O)[C@@H](NC(=O)OC(C)(C)C)c4ccccc4)C[C@@](O)([C@@H](OC(=O)c4ccccc4)[C@H]21)C3(C)C")
0.907

---

- Test system: HCI-005.E2 (organoid from a breast cancer xenograft with a HER2-positive history)
- test-details: CTG-3D luminescence at 96 h relative to day-0 seeding control (ratio to day 0); higher = more growth / less cytotoxicity; PDxO 3D drug screen, 96 h, CTG-3D normalised to day-0 seeding control.
- test-parameters: 0.005 µM
endpoint-label: CTG-3D luminescence at 96 h

>>> reported_result("O=C(O)C1(C(=O)O)CCC1.[NH2-].[NH2-].[Pt+2]")
1.73
>>> reported_result("NC(=O)c1cccc2cn(-c3ccc([C@@H]4CCCNC4)cc3)nc12")
1.3
>>> reported_result("C[C@@H]1COCCN1c1cc(C2([S@](C)(=N)=O)CC2)nc(-c2cc[nH]c3nccc2-3)n1")
1.86
>>> reported_result("CC[C@H](NC(=O)[C@H](C)NC)C(=O)N1C[C@@H](O)C[C@H]1Cc1c(-c2[nH]c3cc(F)ccc3c2C[C@@H]2C[C@H](O)CN2C(=O)[C@H](CC)NC(=O)[C@H](C)NC)[nH]c2cc(F)ccc12")
1.74
>>> reported_result("NC1(C(=O)N[C@@H](CCO)c2ccc(Cl)cc2)CCN(c2nc[nH]c3nccc2-3)CC1")
1.86
>>> reported_result("C/C=C1\\NC(=O)[C@H]2CSSCC/C=C/[C@H](CC(=O)N[C@H](C(C)C)C(=O)N2)OC(=O)[C@H](C(C)C)NC1=O")
0.155
>>> reported_result("Cc1cc(Nc2ncc(Cl)c(Nc3ccccc3S(=O)(=O)C(C)C)n2)c(OC(C)C)cc1C1CCNCC1")
1.79
>>> reported_result("Cc1nc(-c2cn3c(n2)-c2ccc(-c4cnn(C(C)(C)C(N)=O)c4)cc2OCC3)n(C(C)C)n1")
1.52
>>> reported_result("CC(C)(C(=O)NCC(F)(F)C(F)(F)F)C(=O)N[C@@H]1C(=O)Nc2ccccc2-c2ccccc21")
1.45
>>> reported_result("C[C@]12CC[C@@H]3c4ccc(O)cc4C[C@@H](CCCCCCCCC[S+]([O-])CCCC(F)(F)C(F)(F)F)[C@H]3[C@@H]1CC[C@@H]2O (stereo partly drawn)")
1.79
>>> reported_result("CC(C)n1nc(-c2ccc3oc(N)nc3c2)c2c(N)ncnc21")
1.9
>>> reported_result("COc1cccc2c1C(=O)c1c(O)c3c(c(O)c1C2=O)C[C@@](O)(C(=O)CO)C[C@@H]3O[C@H]1C[C@H](N)[C@H](O)[C@H](C)O1")
1.21
>>> reported_result("CC(=O)O[C@H]1C(=O)[C@@]2(C)[C@H]([C@H](OC(=O)c3ccccc3)[C@]3(O)C[C@H](OC(=O)[C@H](O)[C@@H](NC(=O)c4ccccc4)c4ccccc4)C(C)=C1C3(C)C)[C@]1(OC(C)=O)CO[C@@H]1C[C@@H]2O")
1.53
